Where these numbers come from: patent US20260132208A1

target: human CCR8 (human, UniProt P51685 1-355)
protocolText: cell-based or functional assay
Reported extrapolated top plateau of hCCL1 curve with 5 µg/mL mAb, protocol #3 values for the following binders.

Here's what some known entries look like.
binder	result
anti-CCR8 mAb 1-24 (antibody, human IgG1, kappa, V domains shown, Humanized mAb, human IgG1 / kappa) VH: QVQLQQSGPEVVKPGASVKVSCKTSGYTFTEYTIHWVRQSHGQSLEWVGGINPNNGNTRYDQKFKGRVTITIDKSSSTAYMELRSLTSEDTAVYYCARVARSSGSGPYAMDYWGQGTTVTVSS VL: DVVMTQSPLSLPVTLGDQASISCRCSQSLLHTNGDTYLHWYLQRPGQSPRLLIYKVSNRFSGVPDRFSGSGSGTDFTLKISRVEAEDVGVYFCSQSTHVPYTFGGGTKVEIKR	366000 % of hCCL1 (100 nM)
anti-CCR8 mAb 1-15 (antibody, V domains shown, Murine hybridoma mAb) VH: EVQLQQSGPELVKPGASVKISCKTSGYTFTEYTMHWVKQSHGKSLEWIGGINPNNGDTNYNQKFMGKATLTVDKSSSTAYMELRSLTSEDSAVYYCVRRLLRRGAMDYWGQGTSVTVSS VL: DIVLTQSPASLAVSLGQRATISCRASENVEYYGTSLMQWFQQKPGQPPKLLIYAASNVDSGVPARFSGSGSGTDFSLNIHPVEEDDIAMYFCQQSRKVPWTFGGGTKLDIK	135000 % of hCCL1 (100 nM)

Now for another entry.
Reported extrapolated top plateau of hCCL1 curve with 5 µg/mL mAb, protocol #3, binder anti-CCR8 mAb 1-4 (antibody, V domains shown, Murine hybridoma mAb) VH: EVQLVESGGGLVQPTGSLRLSCAASGFTFNAYAMNWVRQAPGKGLEWVARIRSKSNDYATYYGDSVKDRFTISRDDSQSMLYLQMNNLKTEDTAMYYCVRGREAYYRYDGGYYAMDYWGQGTSVTVSS VL: DIVMTQAAPSVSVTPGESVSISCTSSKSLLHSNGNTYLYWFLQRPGQSPQLLIYRMSNLASGVPDRFSGSGSGTAFTLRISRVEAEDVGVYYCMQHREYPFTFGSGTKLEIK : ____
313000 % of hCCL1 (100 nM)
